# Test system: Odoribacter splanchnicus
# run description: growth AUC relative to DMSO control (median of replicates) (fraction); higher = more growth (less inhibition), active = hit call of the paper;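 active = AUC reduced over 20% with Padj below 0.05 in at least 2 of 3 replicates; inactive = otherwise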
# run parameters: 20 µM; 24 h
Classes used: active, inactive

                                    molecule                       tgt  assigned_label
 0           CSc1nc(N=[N+]=[N-])nc(NC(C)C)n1  Odoribacter splanchnicus        inactive
 1                  CON(C)C(=O)Nc1ccc(Br)cc1  Odoribacter splanchnicus        inactive
 2             O=C1C(Cl)=C(Cl)C(=O)c2ccccc21  Odoribacter splanchnicus        inactive
 3         CC(C)N(C(=O)SCC(Cl)=C(Cl)Cl)C(C)C  Odoribacter splanchnicus        inactive
 4      COC(=O)NC(=S)Nc1ccccc1NC(=S)NC(=O)OC  Odoribacter splanchnicus        inactive
 5  C#CCN1C(=O)COc2cc(F)c(N3C(=O)C4=C(CCCC4)C3=O)cc21  Odoribacter splanchnicus        inactive
 6  Cn1cc(-c2ccccc2)c(=O)c(-c2cccc(C(F)(F)F)c2)c1  Odoribacter splanchnicus        inactive
 7         CC(C)OC(=O)C(C(=O)OC(C)C)=C1SCCS1  Odoribacter splanchnicus        inactive
 8                    CNC(=O)Oc1ccccc1OC(C)C  Odoribacter splanchnicus        inactive
 9    Clc1ccc(C(c2ccc(Cl)cc2)C(Cl)(Cl)Cl)cc1  Odoribacter splanchnicus        inactive
10      CCCCCCCCSC(=O)Oc1cc(Cl)nnc1-c1ccccc1  Odoribacter splanchnicus        inactive
11  O=C(NC(=O)c1c(F)cccc1F)Nc1ccc(CO/N=C(\c2ccc(Cl)cc2)C2CC2)cc1  Odoribacter splanchnicus        inactive
12  CC(C)[C@H](C(=O)O[C@H](C#N)c1cccc(Oc2ccccc2)c1)c1ccc(Cl)cc1  Odoribacter splanchnicus        inactive
13                                 O=C(O)CCl  Odoribacter splanchnicus        inactive
14  COC(=O)[C@@H](C)N(C(=O)Cc1ccccc1)c1c(C)cccc1C  Odoribacter splanchnicus        inactive
15  CCOC1Oc2ccc(OS(C)(=O)=O)cc2C1(C)C (stereo unspecified)  Odoribacter splanchnicus        inactive
16   CC(=O)O.NC(N)=NCCCCCCCCNCCCCCCCCN=C(N)N  Odoribacter splanchnicus          active
17                        Oc1ccccc1-c1ccccc1  Odoribacter splanchnicus        inactive
18               CNC(=O)Oc1cccc2c1OC(C)(C)C2  Odoribacter splanchnicus        inactive
19  Cc1cc(C(C#N)c2ccc(Cl)cc2)c(Cl)cc1NC(=O)c1cc(I)cc(I)c1O (stereo unspecified)  Odoribacter splanchnicus          active
20  COC(=O)C(C)N(C(=O)Cc1ccccc1)c1c(C)cccc1C (stereo unspecified)  Odoribacter splanchnicus        inactive

* * *

# Tested on: Escherichia coli ED1a
# run description: growth AUC relative to DMSO control (median of replicates) (fraction); higher = more growth (less inhibition), active = hit call of the paper
# run parameters: 20 µM; 24 h
If the reported growth AUC equals or exceeds 1, assign y. If not, assign n.

>>> df
                                   compound  assigned_label
0                CC1(C)CON(Cc2ccccc2Cl)C1=O               n
1  COC(=O)c1ccccc1S(=O)(=O)NC(=O)Nc1nc(C)nc(OC)n1               n
2              CCc1cccc(CC)c1N(COC)C(=O)CCl               n
3  CCOP(=S)(Oc1ccc([N+](=O)[O-])cc1)c1ccccc1 (stereo not given)               y
4  Oc1ccc(C(c2ccc(O)cc2)(C(F)(F)F)C(F)(F)F)cc1               n
5  COP(=S)(OC)Oc1ccc(Sc2ccc(OP(=S)(OC)OC)cc2)cc1               y
